# procedureSummary: in vivo
# testConditions: rat, brain (striatum microdialysate, unbound drug), iv, 30 μg/min/kg
endpointLabel: half-life (min)
Give the value in min but do not write min after it.

Measured half-life of CC/C=C\C/C=C\C/C=C\C/C=C\C/C=C\CCCC(=O)OCCN(CC)CCOC(c1ccccc1)c1ccccc1 : 49.1
